Target of assay: K-Ras G12C (Homo sapiens (Human), UniProt P01116, G12C)
Sequence (P01116 other isoform, or with tags, fused parts or gaps G12C): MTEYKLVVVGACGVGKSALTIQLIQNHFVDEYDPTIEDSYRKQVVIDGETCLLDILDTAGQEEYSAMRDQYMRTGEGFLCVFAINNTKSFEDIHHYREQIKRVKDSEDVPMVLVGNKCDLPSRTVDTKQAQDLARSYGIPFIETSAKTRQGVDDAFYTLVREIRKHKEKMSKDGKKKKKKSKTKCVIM
Experimental details: Western blot assay for in cell alkylation of K-Ras G12C (HCC1171 cells)
Settings: 18 hours at 37° C., 7 point dose response
Measurement name: pEC50
Answers are plain numbers, as −log10 of the molar value.

Some molecules with known pEC50 results, for comparison:
Please report the recorded pEC50 for C=CC(=O)N1CCN(c2nc(OC3CCCC3N(C)C)nc3cc(-c4nc(N)cc(C)c4C(F)(F)F)c(Cl)cc23)[C@@H](C)C1 (stereo partly drawn) .
7.55

Field entry: "C=CC(=O)N1CCN(c2ncnc3cc(-c4nc(N)cc(C)c4Cl)c(Cl)cc23)CC1"
6.40

Field entry: C=CC(=O)N1CCN(c2nc(OCC3CCC(COC)N3C)nc3cc(-c4nc(N)ccc4C(F)(F)F)c(Cl)cc23)CC1 (stereo not drawn)
7.15

Go through the items and report each one's pEC50.
1. C=CC(=O)N1CCN(c2ncnc3cc(-c4nc(NC(=O)C5CC5)cc5ccccc45)c(Cl)cc23)CC1
2. C=C(F)C(=O)N1CCN(c2ncnc3cc(-c4nc(N)ccc4C(F)(F)F)c(Cl)cc23)C[C@@H]1C#N [Example 46b]
3. C=C(F)C(=O)N1CCN(c2nc(OC[C@@H]3C[C@@H](F)CN3C)nc3cc(-c4nc(N)cc(C)c4C(F)(F)F)c(Cl)cc23)CC1CC#N (stereo partly drawn)

5.26
6.57
7.59

Data provenance: patent US11236068B2
